# Tested on: HeLa cervical cancer cells
# method-description: MTT antiproliferative assay, HeLa
# Assay type: cell-based
# reported-conditions: Homo sapiens, read-out: IC50 HeLa Cervical

>  <compound>
COc1cc(CO)ccc1OC1OC(COC(=O)c2cc([N+](=O)[O-])cc([N+](=O)[O-])c2)C(O)C(O)C1O (stereo not shown)

>  <IC50 (µM)>
38.4

$$$$

---

# Test system: HL-60 leukemia cells
# method-description: MTT antiproliferative assay, HL-60
# Format: cell-based, human
# reported-conditions: Homo sapiens, HL-60, read-out: IC50 HL-60 Leukemia

>  <molecule>
COc1cc(CO)ccc1OC1OC(COC(=O)c2cc([N+](=O)[O-])cc([N+](=O)[O-])c2)C(O)C(O)C1O (stereo not shown)

>  <IC50 [µM]>
29.6

$$$$
